Test system: HIV (H9/HTLV-IIIB) in C8166 cells
Assay: plaque assay: inhibition of syncytia formation in HIV-infected C8166 cells
Format: cell-based
Conditions: Human immunodeficiency virus 1, IIIB, Table VI, 72 h, 50% inhibition of syncytia formation
observation type: EC50 (nM)

1. CC(C)(C)NC(=O)[C@@H]1C[C@H](Sc2ccccc2)CCN1C[C@@H](O)[C@H](Cc1ccccc1)NC(=O)[C@@H](NC(=O)c1ccc2ccccc2n1)C(C)(C)C [Table VI, entry 1]
2. CC(C)(C)NC(=O)[C@@H]1C[C@H](S(=O)(=O)c2ccncc2)CCN1C[C@@H](O)[C@H](Cc1ccccc1)NC(=O)[C@@H](NC(=O)c1ccc2ccccc2n1)C(C)(C)C [Table VI, entry 7]
3. CC(C)(C)NC(=O)[C@@H]1C[C@H](Sc2ncccn2)CCN1C[C@@H](O)[C@H](Cc1ccccc1)NC(=O)[C@H](CC(N)=O)NC(=O)c1ccc2ccccc2n1 [Table VI, entry 3]
## Input Please sort the compounds listed above from highest to lowest EC50. Arrange the labels as the request states and list them.
## Output 3, 2, 1

P. CNC(=O)C[C@H](NC(=O)c1ccc2ccccc2n1)C(=O)N[C@@H](Cc1ccccc1)[C@H](O)CN1CC[C@@H](Oc2ccccc2)C[C@H]1C(=O)NC(C)(C)C [Table VI, entry 4]
Q. C[C@@H](O)[C@H](NC(=O)c1ccc2ccccc2n1)C(=O)N[C@@H](Cc1ccccc1)[C@H](O)CN1CC[C@@H](S(=O)(=O)c2ccccc2)C[C@H]1C(=O)NC(C)(C)C [Table VI, entry 6]
## Input Decide: P or Q , by lowest recorded EC50. Your choice should be expressed through its label.
## Output P
(P: 13 nM, Q: 61 nM)

* * *

Tested on: HIV (H9/HTLV-IIIB) in C8166 cells
Assay: plaque assay: inhibition of syncytia formation in HIV-infected C8166 cells
Format: cell-based
Conditions: Human immunodeficiency virus 1, IIIB, Table IV, 72 h, 50% inhibition of syncytia formation
pEC50: −log10 of the molar value.
observation type: pEC50

Cc1cc(C)nc(S[C@@H]2CCN(C[C@@H](O)[C@H](Cc3ccccc3)NC(=O)OCc3ccccc3)[C@H](C(=O)NC(C)(C)C)C2)n1 ... 6.54
CC(C)[C@H](NC(=O)c1ccc2ccccc2c1)C(=O)N[C@@H](Cc1ccccc1)[C@H](O)CN1CC[C@@H](Sc2ccccc2)C[C@H]1C(=O)NC(C)(C)C ... 7.80

A. CC(C)[C@H](NC(=O)OCc1ccccc1)C(=O)N[C@@H](Cc1ccccc1)[C@H](O)CN1CC[C@@H](SCc2ccccc2)C[C@H]1C(=O)NC(C)(C)C
B. CC(C)[C@H](NC(=O)OCc1ccccc1)C(=O)N[C@@H](Cc1ccccc1)[C@H](O)CN1CC[C@@H](c2ccccc2)C[C@H]1C(=O)NC(C)(C)C
## Input Of A and B , which carries the smaller reported pEC50 figure? When you have decided, please share the label of that item.
## Output B
(B: 7.05, A: 8.15)

* * *

Test system: HIV (H9/HTLV-IIIB) in C8166 cells
Experiment: plaque assay: inhibition of syncytia formation in HIV-infected C8166 cells
Type: cell-based
Conditions: Human immunodeficiency virus 1, IIIB, Table VI, 72 h, 50% inhibition of syncytia formation
pEC50: −log10 of the molar value.
observation type: pEC50

Cc1cc(C)nc(S[C@@H]2CCN(C[C@@H](O)[C@H](Cc3ccccc3)NC(=O)[C@H](CC(N)=O)NC(=O)c3ccc4ccccc4n3)[C@H](C(=O)NC(C)(C)C)C2)n1 ... 7.38

P. CC(C)(C)NC(=O)[C@@H]1C[C@H](SCc2cccnc2)CCN1C[C@@H](O)[C@H](Cc1ccccc1)NC(=O)[C@@H](NC(=O)c1ccc2ccccc2n1)C(C)(C)C
Q. CC(C)(C)NC(=O)[C@@H]1C[C@H](S(=O)(=O)c2ccccn2)CCN1C[C@@H](O)[C@H](Cc1ccccc1)NC(=O)[C@@H](NC(=O)c1ccc2ccccc2n1)C(C)(C)C
## Input Problem: Given the entries P and Q , determine which has the lower reported pEC50. Your answer should be the label of the entry you select.
## Output Q
(Q: 7.36, P: 8.10)

* * *

Biological target: HIV protease (Human immunodeficiency virus type 1 group M subtype B, UniProt P04585)
Construct: HIV protease was expressed in E. coli; made in house; host or cells: E. coli (plasmid pBRT1 prt+)
Assay: Recombinant HIV Protease HPLC Assay
Assay type: biochemical
Conditions: Table IV; 37°, 30 min, pH 5.5
observation type: IC50 (nM)

These recorded examples may help you get a feel for the data.
CC(C)(C)NC(=O)[C@@H]1C[C@H](Oc2ccccc2)CCN1C[C@@H](O)[C@H](Cc1ccccc1)NC(=O)OCc1ccccc1 ... 53
CC(C)[C@H](NC(=O)N(C)Cc1ccccn1)C(=O)N[C@@H](Cc1ccccc1)[C@H](O)CN1CC[C@@H](Sc2ccccc2)C[C@H]1C(=O)NC(C)(C)C ... 4.3
CC(C)[C@H](NC(=O)OCc1ccccc1)C(=O)N[C@@H](Cc1ccccc1)[C@H](O)CN1CC[C@@H](Oc2ccccc2)C[C@H]1C(=O)NC(C)(C)C ... 2.7
CC(C)(C)NC(=O)[C@@H]1C[C@H](C2CCCCC2)CCN1C[C@@H](O)[C@H](Cc1ccccc1)NC(=O)OCc1ccccc1 ... 2100
CC(C)(C)NC(=O)[C@@H]1C[C@H](S(=O)(=O)c2ccccc2)CCN1C[C@@H](O)[C@H](Cc1ccccc1)NC(=O)[C@H](CC(N)=O)NC(=O)c1ccc2ccccc2n1 ... 4.7

A. CC(C)(C)NC(=O)[C@@H]1C[C@H](Sc2ccccc2)CCN1C[C@@H](O)[C@H](Cc1ccccc1)NC(=O)[C@H](CC(N)=O)NC(=O)OCc1ccccc1
B. CC(C)(C)NC(=O)[C@@H]1C[C@H](Sc2ccccc2)CCN1C[C@@H](O)[C@H](Cc1ccccc1)NC(=O)[C@H](CC(N)=O)NC(=O)c1ccc2ccccc2n1
## Input Task for the reader: decide whether A or B has the larger IC50. Indicate which entry you chose by stating its label.
## Output A
(A: 4 nM, B: 1.8 nM)

* * *

Test system: HIV (H9/HTLV-IIIB) in C8166 cells
Experiment: plaque assay: inhibition of syncytia formation in HIV-infected C8166 cells
Type: cell-based
Conditions: Human immunodeficiency virus 1, IIIB, Table IV, 72 h, 50% inhibition of syncytia formation
pEC50: −log10 of the molar value.
observation type: pEC50

Example compounds with recorded pEC50:
CC(C)[C@H](NC(=O)N(C)Cc1ccccn1)C(=O)N[C@@H](Cc1ccccc1)[C@H](O)CN1CC[C@@H](Sc2ccccc2)C[C@H]1C(=O)NC(C)(C)C [Table IV, entry 38] ... 7.85
CC(C)(C)NC(=O)[C@@H]1C[C@H](Sc2ccccc2)CCN1C[C@@H](O)[C@H](Cc1ccccc1)NC(=O)OCc1ccccc1 [Table IV, entry 5] ... 6.10
Cc1cc(C)nc(S[C@@H]2CCN(C[C@@H](O)[C@H](Cc3ccccc3)NC(=O)[C@@H](NC(=O)OCc3ccccc3)C(C)C)[C@H](C(=O)NC(C)(C)C)C2)n1 [Table IV, entry 36] ... 8.05

a. CC(C)[C@H](NC(=O)OCc1ccccc1)C(=O)N[C@@H](Cc1ccccc1)[C@H](O)CN1CC[C@@H](Oc2ccccn2)C[C@H]1C(=O)NC(C)(C)C [Table IV, entry 18]
b. CC(C)(C)NC(=O)[C@@H]1C[C@H](S(=O)(=O)c2ccccc2)CCN1C[C@@H](O)[C@H](Cc1ccccc1)NC(=O)OCc1ccccc1 [Table IV, entry 4]
c. CC(C)(C)NC(=O)[C@@H]1C[C@H](Sc2ccccc2)CCN1C[C@@H](O)[C@H](Cc1ccccc1)NC(=O)[C@H](CC(N)=O)NC(=O)c1ccc2ccccc2c1 [Table IV, entry 25]
d. CC(C)(C)NC(=O)[C@@H]1C[C@H](S(=O)(=O)c2ccccc2)CCN1C[C@@H](O)[C@H](Cc1ccccc1)NC(=O)[C@H](CC(N)=O)NC(=O)c1ccc2ccccc2n1 [Table IV, entry 22]
## Input Task for the reader: rank each entry by its pEC50, from the minimum upward. Returns: the labels listed in the requested order.
## Output b, d, a, c

I. CC(C)[C@H](NC(=O)OCc1ccccc1)C(=O)N[C@@H](Cc1ccccc1)[C@H](O)CN1CC[C@@H](Cc2ccccc2)C[C@H]1C(=O)NC(C)(C)C [Table IV, entry 13]
II. CC(C)(C)NC(=O)[C@@H]1C[C@H](Sc2ccccc2)CCN1C[C@@H](O)[C@H](Cc1ccccc1)NC(=O)[C@H](CC(N)=O)NC(=O)c1ccc2ccccc2n1 [Table IV, entry 23]
## Input Kindly compare I with II and tell me which has the lower pEC50 figure. State the label of the item chosen.
## Output I

a. CC(C)(C)NC(=O)[C@@H]1C[C@H](Oc2ccccc2)CCN1C[C@@H](O)[C@H](Cc1ccccc1)NC(=O)[C@H](CC(N)=O)NC(=O)OCc1ccccc1 [Table IV, entry 17]
b. CC(C)[C@H](NC(=O)OCc1ccccc1)C(=O)N[C@@H](Cc1ccccc1)[C@H](O)CN1CC[C@@H](Sc2ccccc2)C[C@H]1C(=O)NC(C)(C)C [Table IV, entry 8]
## Input Between the entries labelled a and b , which has a larger pEC50 value on record? Return value: the label identifying the chosen record.
## Output b
